B1: ATE1 (parent)
chain: DYFPSEDFYRCGYCKNESGSRSNG

Variants of: B1
Assay: protein stability index of a GFP-peptide fusion (GPS, HEK-293T) (PSI 1-6); higher = more stable;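 further: lentivirally expressed fusions sorted by FACS into six bins by GFP to DsRed ratio, PSI derived from sequencing read proportions per bin multiplied by bin number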
Details: c terminus: a fixed tail appended
Kindly supply the reported protein stability index values for the records listed here.
Simply state the number, no unit and no words.

Record request: protein stability index value, item E6L
1.85

Record request: protein stability index value, item C14L
3.28

Record request: protein stability index value, item S5T
2.15

Record request: protein stability index value, item P4V
1.18

Record request: protein stability index value, item C11I
3.83

Record request: protein stability index value, item D1A
2.3

Record request: protein stability index value, item D1V
2.58

Record request: protein stability index value, item S22N
2.07

Record request: protein stability index value, item D7M
1.83

Record request: protein stability index value, item S22G
2.04

Record request: protein stability index value, item K15P
3.41

Record request: protein stability index value, item F8M
2.56

Record request: protein stability index value, item G24E
2.67

Record request: protein stability index value, item F8H
2.19

Record request: protein stability index value, item Y13F
2.4

Record request: protein stability index value, item G24N
2.09

Record request: protein stability index value, item D1P
2.35

Record request: protein stability index value, item K15H
1.64

Record request: protein stability index value, item S22W
2.33

Record request: protein stability index value, item Y13T
3.93

Record request: protein stability index value, item Y13L
2.03

Record request: protein stability index value, item C14P
3.53
